I'd appreciate it if you could supply log10(Ki) values for the items below.
Each number you see is log10 of Ki, and the unit inside the log is nM.

Lookup: What reported log10(Ki) corresponds to CCCN1CCC(COc2ccc3c(c2)CN(C)CC3c2ccc(OC)c(F)c2)CC1 (stereo not drawn) [Example 112] on human SERT (Homo sapiens)?
Found: 0.78

Lookup: What reported log10(Ki) corresponds to CCN(CC)CCCOc1ccc2c(c1)CN(C)CC2c1ccc(OC)cc1 (stereo not drawn) [Example 3] on human SERT (Homo sapiens)?
Found: 0.60

Lookup: What reported log10(Ki) corresponds to COc1ccc(C2CN(C)Cc3cc(OC[C@H]4CN(C(C)C)CCO4)ccc32)cc1 (single isomer, unassigned) [Example 256B] on human SERT (Homo sapiens)?
Found: 0.60

Lookup: What reported log10(Ki) corresponds to COc1ccc(C2CN(C)Cc3cc(OCCCN4CCN(C(=O)c5cccn5C)CC4)ccc32)cc1 (stereo not drawn) [Example 13] on human SERT (Homo sapiens)?
Found: 1.04

Lookup: What reported log10(Ki) corresponds to COc1ccc(C2CN(C)Cc3cc(OCCCN4CCOC[C@@H]4C)ccc32)c(F)c1 (stereo partly drawn) [Example 220] on human SERT (Homo sapiens)?
Found: 1.08

Lookup: What reported log10(Ki) corresponds to COCCN(CCCOc1ccc2c(c1)CN(C)CC2c1ccc(OC)cc1)CCOC (stereo not drawn) [Example 17] on human SERT (Homo sapiens)?
Found: 0.85

Lookup: What reported log10(Ki) corresponds to COc1ccc(C2CN(C)Cc3cc(C#CCCN4CCN(C(C)C)CC4)ccc32)cc1 (stereo not drawn) [Example 278] on human SERT (Homo sapiens)?
Found: 0.95

Lookup: What reported log10(Ki) corresponds to CN1Cc2cc(OCCCN3CCC(F)CC3)ccc2C(c2ccc(C#N)cc2)C1 (stereo not drawn) [Example 136] on human SERT (Homo sapiens)?
Found: 1.30

Lookup: What reported log10(Ki) corresponds to COc1cccc(C2CN(C)Cc3cc(OCCCN4CCC(F)CC4)ccc32)c1 (single isomer, unassigned) [Example 45B] on human SERT (Homo sapiens)?
Found: 0.78

Lookup: What reported log10(Ki) corresponds to c1cncc(C2CNCc3cc(CCCCN4CCCCC4)ccc32)c1 (stereo not drawn) [Example 272] on human SERT (Homo sapiens)?
Found: 3.48

Lookup: What reported log10(Ki) corresponds to CN1Cc2cc(OCCCN3CCCCC3)ccc2C(c2ccc(C(F)(F)F)cc2)C1 (stereo not drawn) [Example 60] on human SERT (Homo sapiens)?
Found: 0.85

Lookup: What reported log10(Ki) corresponds to CN1Cc2cc(C#CCCN3CCCCC3)ccc2C(c2ccc(F)cc2)C1 (stereo not drawn) [Example 279] on human SERT (Homo sapiens)?
Found: 1.99

###

ASSAY READOUT: pKi
# pKi: negative log10 of molar concentration; output just the value

Lookup: What reported pKi corresponds to CSc1ccc(C2CN(C)Cc3cc(OCC4CNCCO4)ccc32)cc1 (mixture of isomers) on human H3 receptor (Homo sapiens, UniProt Q9Y5N1)?
Found: 5.49

Lookup: What reported pKi corresponds to CN1Cc2cc(OCCCN3CCCCC3)ccc2C(c2ccc(Cl)c(Cl)c2)C1 (centres unmarked) on human H3 receptor (Homo sapiens, UniProt Q9Y5N1)?
Found: 8.30

Lookup: What reported pKi corresponds to COc1ccc(C2CN(C)Cc3cc(OCC4CN(C)CCO4)ccc32)cc1 (mixture of isomers) on human H3 receptor (Homo sapiens, UniProt Q9Y5N1)?
Found: 7.17

Lookup: What reported pKi corresponds to COc1ccc(C2CN(C(C)c3ccccc3)Cc3cc(OCCCN4CCOCC4)ccc32)cc1 (single isomer, unassigned) [Example 75A] on human H3 receptor (Homo sapiens, UniProt Q9Y5N1)?
Found: 8.15

Lookup: What reported pKi corresponds to COc1ccc(C2CN(C)Cc3cc(CCCCN4CCC(F)(F)CC4)ccc32)cc1 (centres unmarked) on human H3 receptor (Homo sapiens, UniProt Q9Y5N1)?
Found: 7.02

Lookup: What reported pKi corresponds to CN1Cc2cc(OCCCN3CCC(F)CC3)ccc2C(c2ccc(OC(F)F)cc2)C1 (centres unmarked) on human H3 receptor (Homo sapiens, UniProt Q9Y5N1)?
Found: 8.10

Lookup: What reported pKi corresponds to COc1ccc(C2CN(C)Cc3cc(OCCCNC(C)C)ccc32)cc1 (centres unmarked) on human H3 receptor (Homo sapiens, UniProt Q9Y5N1)?
Found: 7.77

Lookup: What reported pKi corresponds to COc1ccc(C2CN(C)Cc3cc(OCCCN4CCC(F)CC4)ccc32)cn1 (centres unmarked) on human H3 receptor (Homo sapiens, UniProt Q9Y5N1)?
Found: 8.52

Cited source: patent US20060194837A1
